FYI, the data here is from patent US20230348614A1.

- Test Target: T1, CD138 on the surface of U266 cells (CD138+ human lymphoblastic myeloma cell line) (human, UniProt P18827 23-310)
- T1 construct: whole, on cells; also called cell surface CD138; membrane CD138
- T1 sequence (looked up): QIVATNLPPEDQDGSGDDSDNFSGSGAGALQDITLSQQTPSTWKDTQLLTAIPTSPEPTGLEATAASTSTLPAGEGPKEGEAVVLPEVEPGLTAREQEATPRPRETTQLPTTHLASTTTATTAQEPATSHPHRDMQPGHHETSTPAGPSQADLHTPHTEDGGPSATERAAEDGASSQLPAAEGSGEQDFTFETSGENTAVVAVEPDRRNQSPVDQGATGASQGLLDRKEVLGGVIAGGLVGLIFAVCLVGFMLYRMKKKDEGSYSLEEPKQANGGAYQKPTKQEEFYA
- Experiment Summary: flow cytometry on U266 cells at pH 6.5, MFI against antibody concentration (about 0.03-30 ug/mL)

| Binder | EC50 (read off the curve) |
| --- | --- |
| Antibody 29-0 (antibody, V domains shown, also called mAb 29-0) VH: EVQLVQSGAEVKKPGASVKVSCKASGYSFSSYYMHWVRQAPGQGLEWMGTIYPGASTTNYNQKFQGRVTMTVDTSTRTAYMELSSLRSEDTAVYYCADFVYWGQGTTVTVSS VL: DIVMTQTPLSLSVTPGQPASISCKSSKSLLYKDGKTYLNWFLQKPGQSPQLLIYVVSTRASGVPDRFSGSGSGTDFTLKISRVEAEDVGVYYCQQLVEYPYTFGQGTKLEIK | ~0.9 µg/mL |
